System: Erysiphe graminis f. sp. tritici
Assay: Test L: wheat powdery mildew, preventive spray on wheat seedlings
Details: 40 ppm (*)
Marks after values point to notes of the source that are not given here.

compound	Test L disease control rating
Cc1ccn(-c2nc(Br)c(-c3c(F)cccc3F)n(CC(C)C)c2=O)n1	99* %
CC(C)Cn1c(-c2cccc(C(F)(F)F)c2)c(Cl)nc(-n2cncn2)c1=O	0* %
CCC(C)Cn1c(-c2c(F)cccc2F)c(Cl)nc(-n2cnc(C#N)c2C#N)c1=O (stereo not shown)	0* %
COCC(C)n1c(-c2c(F)cccc2F)c(Cl)nc(-n2cccn2)c1=O (stereo not shown)	97* %
CC(C)Cn1c(-c2cc(Br)c3c(c2)OCO3)c(Cl)nc(-n2cncn2)c1=O	0* %
CC(C)Cn1c(-c2ccc3ccccc3c2)c(Cl)nc(-n2cncn2)c1=O	0* %
CC[C@H](C)Cn1c(-c2c(F)cc(F)cc2F)c(Cl)nc(-n2ccc(C)n2)c1=O	100* %
Cc1cc(C)cc(-c2c(Cl)nc(-n3cccn3)c(=O)n2CC(C)C)c1	0* %
CC(C)Cn1c(-c2cccc3ccccc23)c(Cl)nc(-n2cncn2)c1=O	0* %
COC(=O)Cn1c(-c2c(F)cccc2F)c(Cl)nc(-n2cncn2)c1=O	0* %

---

Test system: Erysiphe graminis f. sp. tritici
Experiment: Test L: wheat powdery mildew, preventive spray on wheat seedlings
Settings: 40 ppm (*)
Marks after values point to notes of the source that are not given here.

molecule	Test L disease control rating
O=c1c(-n2cncn2)nc(Cl)c(-c2c(F)cccc2F)n1Cc1ccc(Cl)cc1	0* %
Cc1ccn(-c2nc(C)c(-c3c(F)cccc3F)n(CC(C)C)c2=O)n1	98* %
CCc1ccccc1-c1c(Cl)nc(-n2cncn2)c(=O)n1CC(C)C	0* %
CC(C)Cn1c(-c2cccc3ccccc23)c(Cl)nc(-n2cccn2)c1=O	0* %
CC1CCCCC1n1c(-c2c(F)cccc2F)c(Cl)nc(-n2cccn2)c1=O (centres unmarked)	83* %
CC(C)Cn1c(-c2ccc(Cl)o2)c(Cl)nc(-n2cccn2)c1=O	0* %
CC(C)Cn1c(-c2cccc(F)c2)c(Cl)nc(-n2cccn2)c1=O	0* %
CC(C)Cn1c(-c2ccc(C(C)(C)C)cc2)c(Cl)nc(-n2cncn2)c1=O	0* %

Origin of the recorded values: patent US20080194585A1
